molecular target: T1, P3028 (VFDEFKPLVEEPQNLIK, SEQ ID NO: 185), His-tagged (human); test: PEPSCAN ELISA; peptide on chip, His-P3028 added;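 note: peroxidase color development with ABTS and H2O2 substrate, OD405 imaged by CCD camera with image processing and taken as raw values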
T1 construct: Synthetic fragment of human serum albumin (positions 397-413); used in solution as His-tagged peptide PGE73; also called PGE73; not shown: His-tag
T1 peptide: VFDEFKPLVEEPQNLIK
Below, each entry is listed with its recorded RAMPO Score.
Observation Type: RAMPO Score

> print(dat)
                                      binder          reading
 1  KKLDTAFVKLSLFTER [KKLDTAFVKLSLFTER (SEQ ID NO: 313)]  575 rampo units
 2  KKLDTFQVKLSLFTER [KKLDTFQVKLSLFTER (SEQ ID NO: 322)]  511 rampo units
 3  KKLDTFFVKLSLATER [KKLDTFFVKLSLATER (SEQ ID NO: 361)]  525 rampo units
 4  KKLDTFFVKLSRFTER [KKLDTFFVKLSRFTER (SEQ ID NO: 356)]  483 rampo units
 5  LKLDTFFVKLSLFTER [LKLDTFFVKLSLFTER (SEQ ID NO: 274)]  449 rampo units
 6  KKLDTFFVKLPLFTER [KKLDTFFVKLPLFTER (SEQ ID NO: 470)]  328 rampo units
 7  KKLDVFFVKLSLFTER [KKLDVFFVKLSLFTER (SEQ ID NO: 429)]  374 rampo units
 8  VKLDTFFVKLSLFTER [VKLDTFFVKLSLFTER (SEQ ID NO: 281)]  442 rampo units
 9  KKVDTFFVKLSLFTER [KKVDTFFVKLSLFTER (SEQ ID NO: 297)]  377 rampo units
10  KKLDTFFVKLSLFIER [KKLDTFFVKLSLFIER (SEQ ID NO: 379)]  375 rampo units
11  KKLDTFFVKLSLFTLR [KKLDTFFVKLSLFTLR (SEQ ID NO: 525)]  246 rampo units
12  KKLDTFFVKLSGFTER [KKLDTFFVKLSGFTER (SEQ ID NO: 431)]  370 rampo units
13  KKLDTFFVKLQLFTER [KKLDTFFVKLQLFTER (SEQ ID NO: 348)]  768 rampo units
14  KKLDTFFVKLRLFTER [KKLDTFFVKLRLFTER (SEQ ID NO: 464)]  333 rampo units
15  KKLDTFFVKLSLWTER [KKLDTFFVKLSLWTER (SEQ ID NO: 375)]  430 rampo units
16  KKLDTFFVKSSLFTER [KKLDTFFVKSSLFTER (SEQ ID NO: 341)]  351 rampo units
17  KKLRTFFVKLSLFTER [KKLRTFFVKLSLFTER (SEQ ID NO: 480)]  317 rampo units
18  KKLDTFFVKLSAFTER [KKLDTFFVKLSAFTER (SEQ ID NO: 350)]  462 rampo units
19  KKRDTFFVKLSLFTER [KKRDTFFVKLSLFTER (SEQ ID NO: 294)]  370 rampo units
20  KKQDTFFVKLSLFTER [KKQDTFFVKLSLFTER (SEQ ID NO: 293)]  473 rampo units
21  KKLDTFFVKLYLFTER [KKLDTFFVKLYLFTER (SEQ ID NO: 415)]  402 rampo units
22  KKWDTFFVKLSLFTER [KKWDTFFVKLSLFTER (SEQ ID NO: 458)]  341 rampo units
23  KHLDTFFVKLSLFTER [KHLDTFFVKLSLFTER (SEQ ID NO: 418)]  394 rampo units
24  KKLITFFVKLSLFTER [KKLITFFVKLSLFTER (SEQ ID NO: 300)]  430 rampo units
25  KKLETFFVKLSLFTER [KKLETFFVKLSLFTER (SEQ ID NO: 299)]  417 rampo units
26  KKLDTFFVKLSTFTER [KKLDTFFVKLSTFTER (SEQ ID NO: 358)]  437 rampo units
27  KKHDTFFVKLSLFTER [KKHDTFFVKLSLFTER (SEQ ID NO: 288)]  477 rampo units
28  KKLDTFFVKLSPFTER [KKLDTFFVKLSPFTER (SEQ ID NO: 497)]  297 rampo units
29  KKLDTFFVVLSLFTER [KKLDTFFVVLSLFTER (SEQ ID NO: 523)]  248 rampo units
30  KKLDTFFVKLSWFTER [KKLDTFFVKLSWFTER (SEQ ID NO: 360)]  409 rampo units

Source: patent US20180177842A1
